experimental.target: SNAP-GAL2R Y271^7.32A (human) (UniProt O43603)
Sequence (O43603 whole entry Y271A): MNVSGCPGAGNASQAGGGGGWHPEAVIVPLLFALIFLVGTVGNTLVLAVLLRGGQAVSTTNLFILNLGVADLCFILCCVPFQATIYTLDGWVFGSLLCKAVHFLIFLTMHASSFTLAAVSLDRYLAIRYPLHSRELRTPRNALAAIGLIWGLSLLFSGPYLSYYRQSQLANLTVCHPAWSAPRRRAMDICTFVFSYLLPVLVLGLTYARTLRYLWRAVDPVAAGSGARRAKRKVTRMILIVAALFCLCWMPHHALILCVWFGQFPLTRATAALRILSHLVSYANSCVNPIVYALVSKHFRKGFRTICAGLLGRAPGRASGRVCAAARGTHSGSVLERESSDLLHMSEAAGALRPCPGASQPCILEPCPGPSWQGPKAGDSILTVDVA
test.details: AlphaScreen or HTRF; saturation binding: HEK293 cells transfected with SNAP-GAL1R or SNAP-GAL2R (WT or mutants), labelled with SNAP-Lumi4-Tb; increasing concentrations of galanin-A2 with or without 100 uM unlabeled galanin, 1 h at room temperature
pKd: −log10 of the molar value.
quantity: pKd

Query: // lookup pKd for GWTLNSAGYLLGPHAVGNHRSFSDKNGLTSC (dye A2 on the additional C-terminal cysteine, numbers count on: the mature protein; additional cysteine at the C-terminal end of the peptide, carries the dye A2; source: synthetic peptide (synthesized by Vazyme, China))
Response: < 6.30
